Quick list: Activity per entry.
biological target: Galectin-3 (Homo sapiens); test: Inhibition of recombinant galectin 3 in human O type red blood cells by hemagglutinination assay relative to galactose
Sequence (P17931 whole entry): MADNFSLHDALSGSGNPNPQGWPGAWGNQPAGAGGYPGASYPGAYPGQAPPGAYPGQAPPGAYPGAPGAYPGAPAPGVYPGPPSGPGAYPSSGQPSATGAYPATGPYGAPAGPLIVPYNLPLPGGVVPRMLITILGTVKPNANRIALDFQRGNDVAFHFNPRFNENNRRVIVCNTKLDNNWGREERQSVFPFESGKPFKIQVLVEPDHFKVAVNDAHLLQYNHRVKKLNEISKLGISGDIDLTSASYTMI

smiles_code: C#CCS[C@@H]1O[C@H](CO)[C@H](O)[C@H](O)[C@H]1O
qualifier_operator: =
Activity: 20
//
smiles_code: OC[C@@H]1O[C@H](n2cc(CS[C@@H]3O[C@H](CO)[C@@H](O[C@@H]4O[C@H](CO)[C@H](O)[C@H](O)[C@H]4O)[C@H](O)[C@H]3O)nn2)[C@@H](O)[C@H](O)[C@@H]1O
qualifier_operator: =
Activity: 2.6
//
smiles_code: OC[C@H]1O[C@@H](C/C=C/c2cccc(/C=C/C[C@@H]3O[C@H](CO)[C@H](O)[C@H](O)[C@H]3O)c2)[C@H](O)[C@@H](O)[C@H]1O
qualifier_operator: <
Activity: 10
//
smiles_code: C=C(C[C@@H]1O[C@H](CO)[C@H](O)[C@H](O)[C@H]1O)c1ccc(OC)cc1
qualifier_operator: =
Activity: 10
//
smiles_code: C/C=C/[C@@H]1O[C@H](CO)[C@H](O)[C@H](O)[C@H]1O
qualifier_operator: <
Activity: 10
